# pIC50 listing for each entry below
Target: UniProt P23743
Sequence (P23743 whole entry, looked up): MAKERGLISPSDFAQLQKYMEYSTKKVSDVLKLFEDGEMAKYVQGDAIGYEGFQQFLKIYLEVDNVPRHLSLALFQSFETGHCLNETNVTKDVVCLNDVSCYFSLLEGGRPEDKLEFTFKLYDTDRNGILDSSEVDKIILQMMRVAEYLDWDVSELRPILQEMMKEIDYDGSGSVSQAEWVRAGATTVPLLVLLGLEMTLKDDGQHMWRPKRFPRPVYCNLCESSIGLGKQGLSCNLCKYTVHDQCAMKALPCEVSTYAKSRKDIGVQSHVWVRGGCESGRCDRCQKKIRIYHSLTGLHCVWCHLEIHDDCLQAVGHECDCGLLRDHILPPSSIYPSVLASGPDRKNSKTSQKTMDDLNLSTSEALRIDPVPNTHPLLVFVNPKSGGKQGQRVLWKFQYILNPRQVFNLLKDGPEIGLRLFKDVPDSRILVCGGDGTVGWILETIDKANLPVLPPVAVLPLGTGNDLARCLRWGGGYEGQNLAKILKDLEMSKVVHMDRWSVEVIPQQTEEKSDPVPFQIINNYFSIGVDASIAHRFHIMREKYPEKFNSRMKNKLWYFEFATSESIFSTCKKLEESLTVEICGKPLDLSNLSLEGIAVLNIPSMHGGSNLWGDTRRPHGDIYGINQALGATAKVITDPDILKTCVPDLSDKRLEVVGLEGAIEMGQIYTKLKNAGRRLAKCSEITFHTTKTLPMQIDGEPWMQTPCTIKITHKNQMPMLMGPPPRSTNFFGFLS
Experiment: biochemical
Type: biochemical
Conditions: Table A; liposome (LIPGLO) assay; read-out: DGKα
pIC50: −log10 of the molar value.
endpointName: pIC50

>>> print(df.to_string())
                                   molecule  endpointname  testresult
0  CC(C)c1ccc(O[C@H]2CCN(c3cc(=O)n(C)c4ccc(C#N)nc34)C[C@H]2C)cc1 (single isomer, unassigned) [Example 183]         pIC50        6.15
1  CCC(C)(C)c1ccc(O[C@@H]2CCN(c3c(C#N)c(=O)n(C)c4ccc(C#N)nc34)C[C@H]2C)cc1 (single isomer, unassigned) [Example 230]         pIC50        5.48
2  CCC(C)(C)c1ccc(O[C@@H]2CCN(c3c(C#N)c(=O)n(C)c4ccc(C#N)nc34)C[C@H]2C)cc1 (single isomer, unassigned) [Example 231]         pIC50        6.31
3  C[C@@H]1CN(c2c(C#N)c(=O)n(C)c3ccc(C#N)nc23)CC[C@@H]1Oc1ccc(C(F)(F)F)cc1 [Example 191]         pIC50        5.74

====

# pEC50 listing for each entry below
Tested on: Human venous whole blood (IFN-γ)
Assay: Human whole blood IFN-γ assay
Assay type: cell-based
Conditions: Homo sapiens, human whole blood IFN-γ; read-out: INFg Whole Blood
Experimental: Assay 10: Human Whole Blood IFN-γ Assay Human venous whole blood (22.5 μL per well), obtained from healthy donors, was pre-treated with compounds for one hour at 37° C. in a humidified 95% air/5% CO2 incubator. The blood was stimulated with 2.5 μL anti-human CD3 and anti-CD28 mAb at a final concentration of 1 μg/mL each for 24 hours at 37° C. IFN-γ in the supernatants was measured using AlphLISA kit (Cat #AL217).
pEC50: −log10 of the molar value.
endpointName: pEC50

In [3]: df
Out[3]:
                                    compound  endpointname  testresult
 0  C[C@@H]1CN(c2cc(=O)n(C)c3ccc(C#N)nc23)CC[C@@H]1Oc1ccc(C(F)F)cn1 (single isomer, unassigned) [Example 209]         pEC50        5.74
 1  Cn1c(=O)cc(N2CC[C@H](Oc3cccc(C(F)(F)F)c3)[C@@H](O)C2)c2nc(C#N)ccc21 (racemic)         pEC50        4.70
 2  CC(C)Oc1ccc(O[C@@H]2CCN(c3cc(=O)n(C)c4ccc(C#N)nc34)C[C@H]2C)nc1 (single isomer, unassigned) [Example 200]         pEC50        5.82
 3  CC(C)c1cccc(O[C@H]2CCN(c3cc(=O)n(C)c4ccc(C#N)nc34)C[C@H]2C)n1 [Example 214]         pEC50        5.30
 4  COc1cc(-c2c(N3CCC(Oc4ccc(OC(F)(F)F)cc4)CC3)c3nc(C#N)ccc3n(C)c2=O)ccn1         pEC50        5.00
 5  COc1ccnc(O[C@H]2CCN(c3cc(=O)n(C)c4ccc(C#N)nc34)C[C@H]2C)n1         pEC50        4.70
 6  CC(C)c1ccc(O[C@H]2CCN(c3cc(=O)n(C)c4ccc(C#N)nc34)C[C@H]2C)cc1 (single isomer, unassigned)         pEC50        5.59
 7  C[C@@H]1CN(c2cc(=O)n(C)c3ccc(C#N)nc23)CC[C@@H]1Oc1ncc(C(F)(F)F)cn1         pEC50        5.41
 8  CC(C)Oc1ccc(O[C@H]2CCN(c3cc(=O)n(C)c4ccc(C#N)nc34)C[C@H]2C)nc1 (racemic)         pEC50        5.96
 9  C[C@@H]1CN(c2cc(=O)n(C)c3ccc(C#N)nc23)CC[C@@H]1Oc1ncc(C2CC2)cn1         pEC50        4.77
10  C[C@@H]1CN(c2cc(=O)n(C)c3ccc(C#N)nc23)CC[C@@H]1OCc1ccc(OC(F)(F)F)cc1 (racemic)         pEC50        5.28
11  C[C@@H]1CN(c2c(C#N)c(=O)n(C)c3ccc(C#N)nc23)CC[C@@H]1Oc1ccc(C(F)(F)F)cc1         pEC50        4.70
12  Cn1c(=O)c(F)c(N2CCC(Oc3ccc(OC(F)(F)F)cc3)CC2)c2nc(C#N)ccc21         pEC50        5.48
13  CC(C)c1cccc(O[C@H]2CCN(c3cc(=O)n(C)c4ccc(C#N)nc34)C[C@H]2C)n1 (single isomer, unassigned) [Example 215]         pEC50        5.68

====

System: OT-1 CD8+ T cells with SIINFEKL-loaded MC38 tumor cells
Experiment: Murine cytotoxic T lymphocyte assay (IFN-γ)
Type: cell-based, mouse
Settings: Mus musculus, MC-38; murine cytotoxic T lymphocyte assay; read-out: msCTL
endpointName: EC50 (nM)

>>> print(df.to_string())
                                   compound  measureunit  testresult
0  COc1ccc(-c2c(N3CCC(Oc4ccc(OC(F)(F)F)cc4)CC3)c3nc(C#N)ccc3n(C)c2=O)cn1 [Example 240]           nM         580
1  COc1cc(-c2c(N3CCC(Oc4ccc(OC(F)(F)F)cc4)CC3)c3nc(C#N)ccc3n(C)c2=O)ccn1 [Example 241]           nM         570
2  Cn1c(=O)c(F)c(N2CCC(Oc3ccc(OC(F)(F)F)cc3)CC2)c2nc(C#N)ccc21 [Example 237]           nM         200

====

Test system: naïve human CD8 T cells (IFN-γ)
Assay: Human CD8 T cells IFN-γ assay
Assay type: cell-based
Conditions: T-cell, read-out: HuCD8 INFG Normalized EC50
pEC50: −log10 of the molar value.
endpointName: pEC50

>>> print(df.to_string())
                                   compound  endpointname  testresult
0  CCC(C)(C)c1ccc(O[C@@H]2CCN(c3cc(=O)n(C)c4ccc(C#N)nc34)C[C@H]2C)cc1 (single isomer, unassigned) [Example 83]         pEC50        8.60
1  Cc1ccc(OC2CCN(c3c(C#N)c(=O)n(C)c4ccc(Cl)nc34)CC2)cc1 [Example 21]         pEC50        6.80
2  C[C@@H]1CN(c2cc(=O)n(C)c3ccc(C#N)nc23)CC[C@H]1Oc1ccc(OC(C)(C)C)cc1 [Example 85]         pEC50        6.21
3  Cn1c(=O)c(C#N)c(N2CCC(Oc3ccc(C(C)(C)C)cc3)CC2)c2nc(Cl)ccc21 [Example 15]         pEC50        6.06
4  Cn1c(=O)c(C#N)c(N2CCC(Oc3ccccc3Cl)CC2)c2nc(Cl)ccc21 [Example 18]         pEC50        6.72
5  Cn1c(=O)cc(N2CCC(Oc3ccc(OC(F)(F)F)cc3)CC2)c2nc(C#N)ccc21 [Example 52]         pEC50        6.00

====

System: Human venous whole blood (IFN-γ)
Experiment: Human whole blood IFN-γ assay
Format: cell-based
Details: read-out: INFg Whole Blood Normalized Agonist EC50; human whole blood, anti-CD3 plus anti-CD28, 24 hours
Method: Assay 10: Human Whole Blood IFN-γ Assay Human venous whole blood (22.5 μL per well), obtained from healthy donors, was pre-treated with compounds for one hour at 37° C. in a humidified 95% air/5% CO2 incubator. The blood was stimulated with 2.5 μL anti-human CD3 and anti-CD28 mAb at a final concentration of 1 μg/mL each for 24 hours at 37° C. IFN-γ in the supernatants was measured using AlphLISA kit (Cat #AL217).
pEC50: −log10 of the molar value.
# pEC50 listing for each entry below
endpointName: pEC50

>>> print(df.to_string())
                                   molecule  testresult
0  CC[C@@H]1CN(c2cc(=O)n(C)c3ccc(C#N)nc23)CC[C@@H]1Oc1cccc(C(C)(C)C)c1 [Example 167]        5.80
1  CC[C@@H]1CN(c2cc(=O)n(C)c3ccc(C#N)nc23)CC[C@H]1Oc1cccc(C(C)C)c1 (single isomer, unassigned) [Example 139]        5.82
2  CC[C@@H]1CN(c2cc(=O)n(C)c3ccc(C#N)nc23)CC[C@H]1Oc1cccc(C(C)C)c1 (single isomer, unassigned) [Example 138]        6.47
3  CC[C@@H]1CN(c2cc(=O)n(C)c3ccc(C#N)nc23)CC[C@@H]1Oc1cccc(C(C)(C)C)c1 [Example 165]        6.08
4  CC[C@@H]1CN(c2cc(=O)n(C)c3ccc(C#N)nc23)CC[C@@H]1Oc1cccc(C(C)(C)C)c1 [Example 166]        6.10

Source: patent US11964973B2
